Would you mind telling me the reported ELISA reading of each entry?
- experimental_system: T1, soluble KDR extracellular domain (ECD) (Calbiochem) (human, UniProt P35968 20-764)
- T1 construct: extracellular domain; Bought protein; also called KDR-ECD; VEGF Receptor 2 D1-7, Cat. #676490
- T1 sequence (P35968 20-764): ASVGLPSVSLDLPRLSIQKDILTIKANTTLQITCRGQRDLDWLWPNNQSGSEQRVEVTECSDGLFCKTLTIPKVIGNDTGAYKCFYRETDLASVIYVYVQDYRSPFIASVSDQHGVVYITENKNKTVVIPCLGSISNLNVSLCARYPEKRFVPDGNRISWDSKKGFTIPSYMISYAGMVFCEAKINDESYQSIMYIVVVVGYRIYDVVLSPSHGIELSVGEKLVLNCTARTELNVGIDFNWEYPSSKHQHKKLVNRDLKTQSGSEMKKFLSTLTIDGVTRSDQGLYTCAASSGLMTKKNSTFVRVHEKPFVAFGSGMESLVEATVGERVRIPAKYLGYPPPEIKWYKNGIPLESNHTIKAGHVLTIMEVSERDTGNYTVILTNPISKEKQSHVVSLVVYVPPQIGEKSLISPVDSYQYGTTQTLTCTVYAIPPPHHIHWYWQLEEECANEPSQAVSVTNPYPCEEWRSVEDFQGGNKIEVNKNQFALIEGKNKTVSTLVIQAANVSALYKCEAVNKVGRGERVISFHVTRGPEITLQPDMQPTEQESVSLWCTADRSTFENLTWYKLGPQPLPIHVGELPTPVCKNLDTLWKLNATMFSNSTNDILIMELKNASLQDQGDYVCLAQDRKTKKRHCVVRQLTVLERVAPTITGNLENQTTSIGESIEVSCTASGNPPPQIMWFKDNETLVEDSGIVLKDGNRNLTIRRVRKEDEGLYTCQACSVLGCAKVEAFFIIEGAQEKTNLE
- method_notes: Limited Antigen ELISA, KDR coat 3.125 ng/mL, supernatant 1:25

[ask] For 29H3 (antibody, V domains shown, Fully human mAb from XenoMouse hybridoma, tested as hybridoma supernatant) VH: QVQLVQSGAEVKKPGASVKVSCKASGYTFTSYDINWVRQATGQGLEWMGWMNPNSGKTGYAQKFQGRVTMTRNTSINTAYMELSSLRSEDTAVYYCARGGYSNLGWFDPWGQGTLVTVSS VL: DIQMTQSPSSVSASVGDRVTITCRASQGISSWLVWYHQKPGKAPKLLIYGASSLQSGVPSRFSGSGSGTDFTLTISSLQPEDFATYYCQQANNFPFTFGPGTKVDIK , what is its reported ELISA reading?
[reply] 0.16

[ask] Fill in: ELISA reading of 33E1 (antibody, V domains shown, Fully human mAb from XenoMouse hybridoma, tested as hybridoma supernatant) VH: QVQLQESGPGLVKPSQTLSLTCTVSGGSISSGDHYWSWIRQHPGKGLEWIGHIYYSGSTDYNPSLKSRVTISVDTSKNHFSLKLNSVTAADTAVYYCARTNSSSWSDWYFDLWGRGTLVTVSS VL: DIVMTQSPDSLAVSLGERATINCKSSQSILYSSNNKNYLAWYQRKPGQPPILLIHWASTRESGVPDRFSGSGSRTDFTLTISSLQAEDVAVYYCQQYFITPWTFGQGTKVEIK is ___
[reply] 0.07

[ask] Which ELISA reading is reported for this binder? 22B8 (antibody, V domains shown, Fully human mAb from XenoMouse hybridoma, tested as hybridoma supernatant) VH: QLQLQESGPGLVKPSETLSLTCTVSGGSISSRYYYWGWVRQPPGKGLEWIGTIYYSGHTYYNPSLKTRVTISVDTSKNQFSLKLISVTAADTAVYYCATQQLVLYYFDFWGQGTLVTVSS VL: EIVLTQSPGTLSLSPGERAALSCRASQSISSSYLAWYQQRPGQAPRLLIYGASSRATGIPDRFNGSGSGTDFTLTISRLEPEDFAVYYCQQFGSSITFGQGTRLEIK
[reply] 0.21

[ask] Any idea what ELISA reading was measured for 30D7 (antibody, V domains shown, Fully human mAb from XenoMouse hybridoma, tested as hybridoma supernatant) VH: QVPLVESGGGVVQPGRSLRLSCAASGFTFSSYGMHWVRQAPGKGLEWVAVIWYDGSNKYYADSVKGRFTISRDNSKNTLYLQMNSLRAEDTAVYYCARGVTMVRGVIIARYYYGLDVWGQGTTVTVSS VL: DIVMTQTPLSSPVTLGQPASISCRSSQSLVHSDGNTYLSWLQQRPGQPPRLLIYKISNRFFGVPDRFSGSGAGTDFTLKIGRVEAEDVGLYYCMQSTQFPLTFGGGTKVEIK ?
[reply] 0.27
